ASSAYED SYSTEM: HLA-DRB1*11:01 (Homo sapiens, UniProt P01903+P01911, A100R/A169T/A87E/I96F/K41T/L162R/M171V/P40S/Q125H/Q178H/Q39Y/Q99D/R42S/S66Y/T262R/V115G/W38E)
ASSAY INFO: Competitive inhibition HLA II binding assay
CONDITIONS USED: competition with radiolabeled probe peptide, purified HLA II, 0.3 nM–30 µM, 2-day incubation; mean of three or more independent assays
Ends that are not written are not given here.
READOUT NAME: IC50
Form entry: enter the amount, then its unit.

input: Quick one: IC50 of KEKFRDIRRFIP [RVC1582–1592] ?
output: 33 nM
